From: PubChem BioAssay AID1996

Recorded solubility kinetic for the following molecules
# condition.summary: buffer; pH 7.4; 200.0 µM

# count of solved cases: 2
Cc1cc(-c2nc(-c3ccc(C(C)(C)C)cc3)no2)no1 | < 0.2 µg/mL
CC1CCN(CCCNc2cc(NCCO)c([N+](=O)[O-])c3nonc23)CC1 | > 56.8 µg/mL

Proceed to the following item.
Give the measured solubility kinetic of O=C(O)CSCC(=O)NC1CCCc2ccccc21 (stereo not drawn) .
> 41.9 µg/mL

====

# condition.summary: buffer; pH 7.4; 200.0 µM
solubility kinetic listing for selected compounds.

The following compounds have reported results that may help.
CC(=O)NCC1COc2ccccc2O1 (stereo not given) | > 31.1 µg/mL
O=C(O)c1ccc(CNC(=O)c2ccc(C(F)(F)F)cc2)cc1 | > 48.5 µg/mL
Cc1ccc(S(=O)(=O)N2CCN(c3cccc(C)c3)CC2)cc1 | < 0.4 µg/mL
O=Cc1c(NCCN2CCCC2)c2ccccc2[nH]c1=O | > 42.8 µg/mL

Kindly review the next compound as well.
Item COCCNC(=O)C(NC(=O)C1CCCCC1)C(C)C (stereo not given) has what recorded solubility kinetic?
> 42.7 µg/mL

====

# condition.summary: buffer; pH 7.4; 200.0 µM
assay.metric: solubility kinetic

O=C1OCc2ccc(NC(=O)C3CC3)cc21 | > 32.6 µg/mL

Looking for the measured solubility kinetic of CC(C)(C)S(=O)(=O)c1cnc(N2CCCCC2)nc1N , can you help?
> 44.8 µg/mL

Again, but for O=C(O)CC(CC(=O)N1CCOCC1)c1ccccc1 (stereo unspecified)
> 41.6 µg/mL

Now this one: CC(C)Oc1ccc(C(=O)Nc2ccc([N+](=O)[O-])cc2)cc1
< 0.3 µg/mL

====

# condition.summary: buffer; pH 7.4; 200.0 µM
Measured solubility kinetic, listed per entry for reference.

Completed entries (count: 6):
O=c1cc(CCl)nc2scc(-c3ccccc3)n12 | > 41.5 µg/mL
O=C(COC(=O)c1ccc(Cl)cc1[N+](=O)[O-])NCc1ccco1 | > 50.8 µg/mL
Cc1ccc(C(=O)Nc2ccc(Nc3ccccc3)cc2)cc1Br | < 0.4 µg/mL
O=C(NCC(=O)N1CCOCC1)c1ccc(Br)cc1 | > 49.1 µg/mL
Cc1ccc(OCC(O)CN2CCOCC2)c(C)c1.Cl (configuration not stated) | > 45.3 µg/mL
Nc1nccc(-c2cccs2)n1 | > 26.6 µg/mL

// next entry
Reported solubility kinetic for COC(=O)C1CN(C(=O)c2cccc(OC(F)F)c2)c2ccccc2O1 (configuration not stated) : what is it?
> 54.5 µg/mL

====

# condition.summary: buffer; pH 7.4; 200.0 µM
assay.metric: solubility kinetic (µg/mL)
Answer with a number only, understood to be in µg/mL.

Worked set:
N#C/C(=C\c1cccnc1)c1nc2ccccc2[nH]1 | 27.4
Cc1[nH]c(=O)c(C#N)c(C)c1[N+](=O)[O-] | 27.3
Cc1ccnc(NC(=O)c2cnc(Cl)c(Cl)c2)c1 | 6.4
CCOc1ccccc1NC(=O)COc1cccnc1[N+](=O)[O-] | 7.5
Cc1cc(C)cc(OCCN2CCOCC2)c1 | 22.5

Quick check: solubility kinetic of O=C1CCc2ccccc2N1 ?
15.9

Please answer likewise for COc1cccc(C(=O)OCC(=O)N2CCc3ccccc3C2)c1
46.1

And then COc1ccccc1NC(=O)C1(c2ccccc2)CCCC1 , what is it?
7.9

Field entry: COc1ccc(Cl)cc1NC(=O)Nc1cnccn1
0.4

Similarly, COc1ccc(C(C)C)cc1S(=O)(=O)NC1CCCC1 ?
3

Entry to check: CCN(CC)CCn1c(N)nc2ccccc21.Cl
44.7

====

# condition.summary: buffer; pH 7.4; 200.0 µM
assay.metric: solubility kinetic (µg/mL)
Unit µg/mL implied. Number only.

Here are 6 compounds together with their reported answers.
CC(C)c1ccc(NC(=S)NC2CC3C=CC2C3)cc1 (stereo not given) | 1.4
O=C(OCC(=O)N1CCc2ccccc21)c1ccccc1F | 1.7
CCc1ccc(NCc2ccc(OC)c(Cn3ccnc3)c2)cc1 | 40.2
COc1ccccc1CSc1nc2c(c(=O)n(C)c(=O)n2C)n1C | 9.8
CN(CC(=O)Nc1cccc(F)c1)C(=O)c1sc2ccccc2c1Cl | 23
N#Cc1ccccc1COC(=O)c1cccnc1N | 10.5

What value of solubility kinetic has been reported for the following compound? COCCn1cnc2c1c(=O)n(CC(=O)NCC(F)(F)F)c(=O)n2Cc1ccccc1
39.9

One more compound: COc1ccccc1NC(=O)COC(=O)/C=C/c1cccs1
4.4

// repeat for Cc1ccc(NC(=O)CN2CCN(C(=O)c3ccco3)CC2)cc1 and report
47.8

And what about the compound Cc1cc(SCC(=O)N2CCCC2=O)nc2ccccc12 ?
11.2

CCOc1ccc(Cc2noc3c2C(=O)CC(C)(C)C3)cc1OCC ?
46.4

What would you report for Cc1ccc(C)c(NC(=O)Cc2nc(CNCC(C)C)cs2)c1 ?
47.1

Same again, this time with O=C(COC(=O)C12CC3CC(CC(C3)C1)C2)NCc1ccccc1
10.2

Cc1csc(NS(=O)(=O)c2ccc(Cl)cc2)n1 , same question.
42.4

====

# condition.summary: buffer; pH 7.4; 200.0 µM
Below, each entry is listed with its recorded solubility kinetic.

Give the measured solubility kinetic of O=C(Cn1nc(Cl)nc1Cl)c1ccc([N+](=O)[O-])cc1 .
> 45.2 µg/mL

How about this compound: COc1cc(/C=C/[N+](=O)[O-])ccc1OC(=O)/C=C/c1ccc(F)cc1
< 0.7 µg/mL

Queued: COc1ccc2nc(SC)c(C#N)cc2c1
< 0.2 µg/mL

Repeat for the following compound: CN(C1CCCCC1)S(=O)(=O)c1ccc2[nH]c(=O)oc2c1
> 46.6 µg/mL

What about this compound? O=C(O)CC1(CC(=O)Nc2ccc3ccccc3n2)CCCCC1
> 49 µg/mL

// next record O=C(CS(=O)(=O)c1ccccc1)Nc1ccc(Cl)cn1
> 46.6 µg/mL

====

# condition.summary: buffer; pH 7.4; 200.0 µM
# Lookup of reported solubility kinetic keyed by entry
Just the number please, in µg/mL, no unit attached.

Known results for compounds:
CN(C)c1ccc(NC(=O)CCN2C(=O)c3cccc([N+](=O)[O-])c3C2=O)cc1 | 42.4
COc1ccc(N2CCN(C(=O)/C=C/c3ccco3)CC2)cc1 | 10.5
Cc1cc(NC(=O)CN2C(=O)NC(C)(c3ccccc3Cl)C2=O)no1 (stereo unspecified) | 28

Which solubility kinetic is listed for Cc1cc2cc(C#N)c(SCC(=O)Nc3nonc3C)nc2cc1C ?
0.3

Also need CCC(=O)NCc1ccc2[nH]c(C)cc2c1 , thanks.
32.3

====

# condition.summary: buffer; pH 7.4; 200.0 µM
assay.metric: solubility kinetic

Solved cases (2 shown):
CCC1(C)NC(C(=O)O)Cc2c1[nH]c1ccccc21 (stereo not drawn) | > 38.7 µg/mL
COc1ccc(OC)c(S(=O)(=O)Nc2cc(C)on2)c1 | > 44.7 µg/mL

Then there is this compound:
Can you look up the measured solubility kinetic of COc1cc(NC(=O)Cc2ccccc2)nc(OC)n1 for me?
> 41 µg/mL

====

# condition.summary: buffer; pH 7.4; 200.0 µM
assay.metric: solubility kinetic

Example cases with answers are listed next.
OCCCc1nc2ccccc2n1Cc1ccccc1 | > 40 µg/mL
CC1CCN(c2ccc(C=O)o2)CC1 | > 29 µg/mL

Please look up its solubility kinetic: Cc1ccccc1NC(=O)N1CCCN(c2ccc(C#N)cn2)CC1
> 50.3 µg/mL

Same lookup for Cc1cc(/C=C2/NC(=O)NC2=O)c(C)n1-c1ccncc1 , please.
> 42.3 µg/mL

Also check CN(Cc1cccc(F)c1)C(=O)C1CC(=O)N(c2ccc3c(c2)OCCO3)C1 (configuration not stated)
> 57.7 µg/mL

Follow-up entry: Cc1cccc(C)c1NC(=O)CN(C)CC(=O)N1CC(=O)Nc2ccccc21
> 57.1 µg/mL

Same for CC(C)NC(=O)NC(=O)CSc1ncccn1
> 38.1 µg/mL

====

# condition.summary: buffer; pH 7.4; 200.0 µM
Would you please tag the item 1 when its solubility kinetic is 30 µg/mL or above, and -1 when it is below?

Solved entries (count: 2):
Cc1ccc(S(=O)(=O)N2CCC(C(=O)NCCN3CCOCC3)CC2)cc1C | 1
Cc1cc(C(=O)Nc2ccc3c(c2)CCC3)ccc1[N+](=O)[O-] | -1

Textbook exercise: given the entry Cc1ccc(NC(=O)c2nc3nccc(C)n3n2)c(C)c1 , state whether its solubility kinetic is greater than or equal to 30 µg/mL.
1

Field entry: O=C(O)c1ccc2c(c1)C(=O)N(c1ccc([N+](=O)[O-])cn1)C2=O
1

====

Measured solubility kinetic accompanies every entry in the list below.
# condition.summary: buffer; pH 7.4; 200.0 µM
Numbers only here, please. The scale is µg/mL.

Answered examples (8):
Cc1ccc2nc(-c3ccccn3)cc(C(=O)NC(C)C(C)(C)C)c2c1 (stereo not given) | 3.2
Cc1ccc(-c2nc(CN3CCN(c4cnccn4)CC3)c(C)o2)o1 | 38.3
Cc1cccc(C)c1N1C(=O)CC(N2CCN(S(=O)(=O)c3ccccc3F)CC2)C1=O (stereo not given) | 50.7
Cc1onc(-c2ccccc2)c1NC(=O)N(CCC#N)Cc1cccs1 | 54.4
CCc1cc2c(SCc3ccc(C(=O)OC)o3)ncnc2s1 | 1.8
NC(=S)C(c1ccccc1)c1ncc(C(F)(F)F)cc1Cl (stereo not given) | 41.7
CCOc1ccc(CNc2ccc3c(c2)ncn3C(C)(C)C)cc1 | 46.3
CCOC(=O)c1ccc(NC(=O)Nc2ccon2)cc1 | 6

So what does the record say about solubility kinetic for COc1cccc(C(=O)OCCNC(=O)c2cccnc2)c1.Cl ?
43.3

// repeat for N/C(=N\OC(=O)c1ccoc1)c1ccc(Br)cc1 and report
9.2

Another: Cc1cccc(NC(=S)NCc2ccccc2)c1C
35.1

# repeat for CCOC(=O)c1c(C)[nH]c(C(=O)OCC(=O)NCc2ccc(C)cc2)c1C
2.6

Thanks! And N/C(=N\OC(=O)Nc1ccccc1)c1ncc([N+](=O)[O-])s1 ?
3.8

Field entry: CC(C)n1c(/N=C/c2ccccc2O)nc2ccccc21
31.4
